tested on: CCRF-CEM leukemia; experiment: NCI tumour cell line growth inhibition, 48 h; in the data active = GI50 below about 0.43 µM; inactive = the rest
Assign a class; possible classes are active, inactive

{"columns": ["compound", "discreteLabel"],
 "data": [
  ["COc1cc2c(/C=N\\N=C(N)N)c(Cl)[nH]c2cc1C", "inactive"],
  ["Cc1nc2ccc(CN(C)c3ccc(C(=O)N[C@@H](CCC(=O)O)C(=O)O)s3)cc2c(=O)[nH]1", "active"],
  ["O=C(Nc1ccc(Cl)cc1Cl)c1ccc(NC2=C(Cl)C(=O)N(Cc3ccccc3)C2=O)cc1", "inactive"],
  ["Nc1ccn(C2OC(CO)C(O)C2F)c(=O)n1 (stereo unspecified)", "inactive"],
  ["O=[N+]([O-])c1ccc(Nc2ccccc2-c2ccccc2)c2nonc12", "inactive"]
]}

input: // param item: COc1ccc2c(c1)C(=O)c1c-2n(CCCN)c(=O)c2ccccc12 ; yields the recorded call
output: active
